# STUDY_TARGET: RSV F protein (immobilized on the BIAcore sensor chip) (respiratory syncytial virus)
# RUN_DESCRIPTION: BIAcore, immobilized F protein;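 note: fab fragments as analytes binding F protein coupled to the chip via EDC/NHS chemistry, with blank surface signal subtracted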
Use 0.0003 s⁻¹ as the dividing line for koff, with the line itself on the T side and lower values as F.

Sample answers from the record:
{"BINDER": "A13c4 (Fab fragment) (Fab, V domains shown, Fab) VH: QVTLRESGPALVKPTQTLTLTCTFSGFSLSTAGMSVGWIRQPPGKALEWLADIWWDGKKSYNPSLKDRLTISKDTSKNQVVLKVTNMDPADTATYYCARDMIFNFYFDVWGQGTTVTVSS VL: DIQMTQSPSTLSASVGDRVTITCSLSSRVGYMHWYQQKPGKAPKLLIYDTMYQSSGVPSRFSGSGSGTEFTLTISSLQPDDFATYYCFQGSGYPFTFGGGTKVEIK", "CLASS_LABEL": "F"}
{"BINDER": "P11d4 (Fab fragment) (Fab, V domains shown, Fab) VH: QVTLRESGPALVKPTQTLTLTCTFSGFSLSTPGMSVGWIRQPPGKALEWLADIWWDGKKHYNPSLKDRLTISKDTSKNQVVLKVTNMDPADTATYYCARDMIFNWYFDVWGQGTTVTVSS VL: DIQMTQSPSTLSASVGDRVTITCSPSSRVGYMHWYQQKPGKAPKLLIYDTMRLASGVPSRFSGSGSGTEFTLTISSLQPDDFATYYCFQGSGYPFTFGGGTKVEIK", "CLASS_LABEL": "T"}

Would you say A13a11 (Fab fragment) (Fab, V domains shown, Fab) VH: QVTLRESGPALVKPTQTLTLTCTFSGFSLSTAGMSVGWIRQPPGKALEWLADIWWDDKKHYNPSLKDRLTISKDTSKNQVVLKVTNMDPADTATYYCARDMIFNWYFDVWGAGTTVTVSS VL: DIQMTQSPSTLSASVGDRVTITCSASSSVGYMHWYQQKPGKAPKLLIYDTYRHASGVPSRFSGSGSGTEFTLTISSLQPDDFATYYCFQGSGYPFTFGGGTKLEIK shows koff at minimum 0.0003 s⁻¹?
F

Next binder up: 1X-493L1FR (Fab fragment) (Fab, V domains shown) VH: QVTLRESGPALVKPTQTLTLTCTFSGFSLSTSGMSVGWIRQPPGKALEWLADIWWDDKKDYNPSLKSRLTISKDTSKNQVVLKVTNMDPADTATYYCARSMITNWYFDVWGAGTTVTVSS VL: DIQMTQSPSTLSASVGDRVTITCSASSSVGYMHWYQQKPGKAPKLLIYDTSKLASGVPSRFSGSGSGTEFTLTISSLQPDDFATYYCFQGSGYPFTFGGGTKLEIK
T

Next binder up: P12f2 (Fab fragment) (Fab, V domains shown, Fab) VH: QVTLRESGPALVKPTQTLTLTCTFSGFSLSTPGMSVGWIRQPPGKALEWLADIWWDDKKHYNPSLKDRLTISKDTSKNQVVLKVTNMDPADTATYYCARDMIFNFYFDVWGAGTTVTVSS VL: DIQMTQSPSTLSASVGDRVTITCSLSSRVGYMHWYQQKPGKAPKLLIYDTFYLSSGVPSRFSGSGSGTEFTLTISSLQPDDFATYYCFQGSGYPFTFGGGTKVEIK
F

Next binder up: A12a6 (Fab fragment) (Fab, V domains shown, Fab) VH: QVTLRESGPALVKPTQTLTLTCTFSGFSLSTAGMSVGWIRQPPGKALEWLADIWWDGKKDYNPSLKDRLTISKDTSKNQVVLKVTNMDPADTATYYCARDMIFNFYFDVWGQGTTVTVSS VL: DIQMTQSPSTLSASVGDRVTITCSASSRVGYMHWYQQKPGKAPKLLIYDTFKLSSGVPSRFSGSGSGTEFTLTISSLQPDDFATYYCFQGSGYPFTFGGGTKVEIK
F
